Hello, the source for this data is patent US10381110B2, in case you need it.

- TEST_TARGET: dopamine D3 (Homo sapiens)
- ASSAY_EXPLANATION: Primary radioligand binding assay (NIMH PDSP); also: test concentration or dose not given here
- MEASUREMENT_CONTEXT: primary radiobinding assay, N-methylspiperone
Where a name gives a salt, the structure may show the parent alone.
Kindly supply the reported D3 (% inh) values for the records listed here.
Numbers only, in % inh.

* COc1ccc2c(c1)CN(CCCN1CCN(c3ccccc3OC)CC1)C2=O | 94.7
* COc1ccc2c(c1)C(=O)N(CCN1CCN(c3ccccc3OC)CC1)C2 [GFR-VII-280-HCl] | 95.7
* COc1ccc2c(c1)C(=O)N(CCCN1CCN(c3ccccc3OC)CC1)C2 | 94.1
* CC1Cc2ccccc2N1C(=O)CN1CCN(c2ccccc2)CC1 (stereo not shown) | 51
* COc1ccc2c(c1)C(=O)N(CCN1CCN(c3ccccc3OC)CC1)C2 [GFR-VII-280] | 98.1
* CC1Cc2ccccc2N1C(=O)CN1CCN(Cc2ccccc2)CC1 (stereo not shown) | 63.6

# next compound below
Consider the compound COc1cc2c(cc1OC)C(=O)N(CCCCN1CCN(c3ccccc3OC)CC1)C2 . State its measured D3 (% inh).
100.5

====

- TEST_TARGET: dopamine D1 (Homo sapiens)
- Sequence (P21728 whole entry): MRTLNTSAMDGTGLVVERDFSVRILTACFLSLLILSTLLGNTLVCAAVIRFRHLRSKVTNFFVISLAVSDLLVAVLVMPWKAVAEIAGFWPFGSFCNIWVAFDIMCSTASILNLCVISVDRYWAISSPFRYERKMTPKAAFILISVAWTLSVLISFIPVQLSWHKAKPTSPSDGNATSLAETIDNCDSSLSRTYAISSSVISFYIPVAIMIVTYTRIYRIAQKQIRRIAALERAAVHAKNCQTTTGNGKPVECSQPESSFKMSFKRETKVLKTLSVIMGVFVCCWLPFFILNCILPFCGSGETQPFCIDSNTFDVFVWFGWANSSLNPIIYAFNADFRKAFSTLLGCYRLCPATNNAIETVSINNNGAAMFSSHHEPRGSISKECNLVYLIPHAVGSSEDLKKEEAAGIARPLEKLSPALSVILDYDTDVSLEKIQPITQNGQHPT
- ASSAY_EXPLANATION: Secondary radioligand binding assay (Ki)
- MEASUREMENT_CONTEXT: read-out: Experimental Receptor Binding Data-Ki D1; Table 25, GPCR panel
PARAMETER: Ki (nM)
Answers are plain numbers, in nM.

• COc1cc2c(cc1OC)C(=O)N(CCCCN1CCN(c3ccccc3OC)CC1)C2 [GFR-VII-285] = 531

Let us examine a further case.
# lookup: dopamine D1 (Homo sapiens) Ki, key = COc1ccc2c(c1)CN(CCCN1CCN(c3ccccc3OC)CC1)C2=O [GFR-VII-290]
2730

====

- TEST_TARGET: 5HT1a (Homo sapiens, UniProt P08908)
- Sequence (P08908 whole entry, species assumed): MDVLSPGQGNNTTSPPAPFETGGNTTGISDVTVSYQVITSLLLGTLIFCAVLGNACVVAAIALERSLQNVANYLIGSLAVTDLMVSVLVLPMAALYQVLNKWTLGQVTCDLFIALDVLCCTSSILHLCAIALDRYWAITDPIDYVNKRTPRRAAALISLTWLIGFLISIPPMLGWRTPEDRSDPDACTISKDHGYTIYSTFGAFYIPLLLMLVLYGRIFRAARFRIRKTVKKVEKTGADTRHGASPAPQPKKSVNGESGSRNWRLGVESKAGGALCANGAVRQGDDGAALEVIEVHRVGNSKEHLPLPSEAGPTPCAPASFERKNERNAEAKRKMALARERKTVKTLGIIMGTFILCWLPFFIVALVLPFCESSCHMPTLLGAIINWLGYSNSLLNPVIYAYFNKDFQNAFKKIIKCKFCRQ
- ASSAY_EXPLANATION: Secondary radioligand binding assay (Ki)
- MEASUREMENT_CONTEXT: read-out: Experimental Receptor Binding Data-Ki 5HT1A; Table 25, GPCR panel
PARAMETER: pKi
One number for each entry, as −log10 of the molar value.

Find the measured pKi of COc1ccc2c(c1)C(=O)N(CCN1CCN(c3ccccc3OC)CC1)C2 and report it.
8.46

====

Exercise: state measured α1A/D2 for each of the compounds provided.
- TEST_TARGET: dopamine D3 (Homo sapiens, UniProt P35462)
- Sequence (P35462 whole entry): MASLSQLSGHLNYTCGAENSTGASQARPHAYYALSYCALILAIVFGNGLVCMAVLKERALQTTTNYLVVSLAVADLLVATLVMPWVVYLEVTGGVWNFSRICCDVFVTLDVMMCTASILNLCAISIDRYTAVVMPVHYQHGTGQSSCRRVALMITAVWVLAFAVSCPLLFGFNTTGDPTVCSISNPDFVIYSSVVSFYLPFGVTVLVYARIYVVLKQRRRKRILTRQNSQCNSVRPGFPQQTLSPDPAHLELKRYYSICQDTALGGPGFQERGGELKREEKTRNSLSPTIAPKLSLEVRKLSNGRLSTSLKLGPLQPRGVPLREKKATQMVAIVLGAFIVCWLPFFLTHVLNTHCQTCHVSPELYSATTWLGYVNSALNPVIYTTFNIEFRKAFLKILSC
- ASSAY_EXPLANATION: Secondary radioligand binding assay (Ki)
- MEASUREMENT_CONTEXT: Table 23: Selectivity of Dopamine D3 over α1 Receptors; ratio of Ki
Structures can show the parent of a compound that is named as a salt.
Give bare numbers.

• COc1ccc2c(c1)CN(CCCN1CCN(c3ccccc3OC)CC1)C2=O = 0.4
• COc1ccc2c(c1)C(=O)N(CCN1CCN(c3ccccc3OC)CC1)C2 [GFR-VII-280] = 0.08
• COc1ccc2c(c1)C(=O)N(CCCN1CCN(c3ccccc3OC)CC1)C2 = 0.4
• COc1ccc2c(c1)C(=O)N(CCN1CCN(c3ccccc3OC)CC1)C2 [GFR-VII-280-HCl] = 0.05

Could you now look at the following compound, please?
Send back dopamine D3 (Homo sapiens, UniProt P35462) α1A/D2 of COc1cc2c(cc1OC)C(=O)N(CCCCN1CCN(c3ccccc3OC)CC1)C2 only.
0.08
